System: CYP2B6
procedure_text: CYP2B6 induction response to prototypical inducer, enzyme activity, primary human hepatocytes
particulars: cryopreserved primary human hepatocytes, probe bupropion 250 µM
metric_name: fold induction at 72 h, 1 mM

Q: Read off the recorded fold induction at 72 h, 1 mM for CCC1(c2ccccc2)C(=O)NC(=O)NC1=O [Phenobarbital]
A: 7.8

====

Test system: CYP3A4 mRNA
procedure_text: Concentration-dependent CYP3A4 mRNA induction in HepatoCells
particulars: Lot 2B; RIS = (Emax × Cmax,ub)/(EC50 + Cmax,ub)
Threshold rule: RIS Based on mRNA greater than or equal to 0.8 is Y; below that, N.

{"columns": ["compound", "label_value"],
 "data": [
  ["CCCN(CCC)S(=O)(=O)c1ccc(C(=O)O)cc1 [Probenecid]", "Y"],
  ["O=C1C(CC[S+]([O-])c2ccccc2)C(=O)N(c2ccccc2)N1c1ccccc1 (stereo not drawn) [Sulfinpyrazone]", "Y"]
]}

Q: Determine whether measured RIS Based on mRNA meets or exceeds 0.8 for O=C1NC(=O)C(c2ccccc2)(c2ccccc2)N1 [Phenytoin]
A: Y

Cited source for all entries: paper PMC5267519
